The values you see were collected from patent US9481669B2.

# Assay text: Mouse pharmacokinetic (PK) study
# Type: in vivo, CD-1 mice
# Experimental setup: mouse, plasma; CD-1 mice, 12 mg/kg PO
Attribute measured: AUC(0-inf) (µg·h/mL)
Record the value in µg·h/mL, omitting the unit from your answer.

Exercise: Suppose we examine the compound C/C(=C\C=C\[C@@H](C)c1ccccn1)[C@H]1OC(=O)C[C@H](O)CC[C@@](C)(O)[C@@H](OC(=O)N2CCN(C3CCCCCC3)CC2)/C=C/[C@@H]1C [Compound 1] ; what AUC(0-inf) value has been reported?
Solution: 6.23

---

# Assay text: Mouse pharmacokinetic (PK) study
# Assay type: in vivo, CD-1 mice
# Experimental setup: mouse, plasma; CD-1 mice, 10 mg/kg PO
Attribute measured: half-life (h)
Kindly answer with a numeric value in h, unit omitted.

Exercise: Suppose we examine the molecule C/C(=C\C=C\[C@@H](C)c1ccccn1)[C@H]1OC(=O)C[C@H](O)CC[C@@](C)(O)[C@@H](OC(=O)N2CCN(C)CC2)/C=C/[C@@H]1C ; what half-life value has been reported?
Solution: 4.04
